These data points were gathered from patent US9120774B2.

Tested on: MCF-7 (estrogen receptor positive breast cancer cells)
testDescription: Anti-proliferation activity against MCF-7 cells (MTS/PMS)
Format: cell-based
testParameters: Homo sapiens, MCF7; Table 11, azasugar analogues on 8-methoxy coumarin; 72 hours; read-out: IC50 MCF-7
measuredAttribute: IC50 (nM)
Give bare numbers, in nM.

query: Fill in: IC50 of COc1cccc(-c2cc(C(=O)Nc3cc4ccc(OC5CCN(C)CC5)c(OC)c4oc3=O)ccc2OC)c1 is ___
result: 1390

###

Test system: MCF-7 (estrogen receptor positive breast cancer cells)
testDescription: Anti-proliferation activity against MCF-7 cells (MTS/PMS)
Type: cell-based
testParameters: Homo sapiens, MCF7; Table 10, azasugar analogues on 6-methoxy coumarin; 72 hours; read-out: IC50 MCF-7
measuredAttribute: IC50 (nM)
Answers are plain numbers, in nM.

Examples from the recorded data:
COc1cccc(-c2cc(C(=O)Nc3cc4cc(OC)c(OC5CCN(C)CC5)c(C)c4oc3=O)ccc2OC)c1 [KU-287]
1790
COc1cccc(-c2cc(C(=O)Nc3cc4cc(OC)c(OC5CCNCC5)c(C)c4oc3=O)ccc2OC)c1 [KU-286]
2820

API: the following record is the query input.
query: Under MCF-7 (estrogen receptor positive breast cancer cells): IC50 value of COc1cccc(-c2cc(C(=O)Nc3cc4cc(OC)c(OC5CCCN(C)C5)c(C)c4oc3=O)ccc2OC)c1 (stereo not drawn) [KU-281] ?
result: 1410
